Molecular target: mutant form of the human GPR119 receptor (Homo sapiens, UniProt Q8TDV5, S329A/T327A)
Sequence (Q8TDV5 with tags, fused parts or gaps T327A/S329A): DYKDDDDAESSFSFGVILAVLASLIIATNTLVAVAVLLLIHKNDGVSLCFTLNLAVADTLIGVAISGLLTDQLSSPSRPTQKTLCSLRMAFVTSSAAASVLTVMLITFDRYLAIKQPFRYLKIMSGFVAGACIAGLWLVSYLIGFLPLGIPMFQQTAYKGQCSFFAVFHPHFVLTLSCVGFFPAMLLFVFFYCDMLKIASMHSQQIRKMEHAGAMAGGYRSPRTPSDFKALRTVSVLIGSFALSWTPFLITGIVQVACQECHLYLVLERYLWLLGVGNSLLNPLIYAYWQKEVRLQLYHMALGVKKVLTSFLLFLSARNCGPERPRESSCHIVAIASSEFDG
Assay: LANCE cAMP-384 assay in HEK293 cells stably expressing a mutant form of the human GPR119 receptor
Conditions: cAMP accumulation, GPR119 stable HEK293 cells, LANCE kit, 20 min at 37° C.
pEC50: −log10 of the molar value.
Think of 7 as a floor: if pEC50 stands on it or above, it is Satisfied; beneath it, Not satisfied.

As a guide, the following entries are already answered.
Compound	Category
Cc1nnnn1-c1ccc(C(=O)N(C2CC2)[C@@H]2CCN(c3ncc(Cl)cn3)C[C@@H]2F)cn1 (single isomer, unassigned)	Satisfied
Cc1nccn1-c1ccc(C(=O)N(C2CC2)[C@@H]2CCN(c3ncc(Cl)cn3)C[C@@H]2F)cn1 (single isomer, unassigned)	Satisfied
O=C(c1cnc(-n2cncn2)nc1)N(C1CC1)[C@@H]1CCN(c2ncc(C(F)(F)F)cn2)C[C@@H]1F (single isomer, unassigned)	Satisfied
CCc1cnc(N2CCC(N(C(=O)c3cn(-c4ccc(C#N)cc4F)cn3)C3CC3)CC2)nc1	Satisfied
Cc1ncn(-c2cnc(C(=O)N(C3CC3)[C@H]3CCN(c4ccc(C(F)(F)F)cn4)C[C@H]3F)cn2)n1 (single isomer, unassigned)	Not satisfied

Enquiry: Exam item: decide whether the reported pEC50 for Cc1ncnn1-c1ccc(C(=O)N(C2CC2)[C@H]2CCN(c3ccc(C(F)(F)F)cn3)C[C@H]2F)cn1 (single isomer, unassigned) is at least 7.
Return: Not satisfied

Enquiry: Can Cc1ncnn1-c1ncc(C(=O)N(C2CC2)[C@@H]2CCN(c3ccc(C(F)(F)F)cn3)C[C@@H]2F)cn1 (single isomer, unassigned) be said to have pEC50 at or above 7?
Return: Not satisfied

Enquiry: Reported pEC50 reaches at least 7 for Cc1nccn1-c1ccc(C(=O)N(C2CC2)[C@H]2CCN(c3ccc(C(F)(F)F)cn3)C[C@H]2F)cn1 (single isomer, unassigned) ?
Return: Not satisfied

Enquiry: Entry Cc1nccn1-c1ncc(C(=O)N(C2CC2)[C@@H]2CCN(c3ncc(C(F)(F)F)cn3)C[C@@H]2F)cn1 (single isomer, unassigned) : is its pEC50 no less than 7?
Return: Satisfied
